# credit: a melting point compilation (Tetko et al.; mined from patent text by program, amines drawn as free bases though some values may be those of a salt)

Measured melting point values are reported for all entries that follow.

>  <molecule>
COC(=O)Cc1ccnc(NC=O)n1

>  <property label>
melting point

>  <assay value>
103 to 107 °C

$$$$
>  <molecule>
CC(C)n1cc2c3c(cccc31)C1CC(C(=O)NC3CCCC3O)CN(C)C1C2 (stereo unspecified)

>  <property label>
melting point

>  <assay value>
232 to 234 °C

$$$$
>  <molecule>
Cn1ccc(-c2[nH]nc3c2C(=O)c2c(NC(=O)NN4CCOCC4)cccc2-3)c1

>  <property label>
melting point

>  <assay value>
301 °C

$$$$
>  <molecule>
CCCC=Cc1c(C(C)C)nc(C(C)C)c(C(=O)OCC)c1-c1ccc(C)cc1

>  <property label>
melting point

>  <assay value>
74 to 77 °C

$$$$
>  <molecule>
O=c1[nH]c(=O)n(CCCCBr)c2cc(Cl)ccc12

>  <property label>
melting point

>  <assay value>
180 to 182 °C

$$$$
>  <molecule>
CNC(=O)C(NC(=O)C(CC(C)C)C(S)CC(=O)OC)C(C)OCc1ccccc1 (stereo unspecified)

>  <property label>
melting point

>  <assay value>
113 to 119 °C

$$$$
>  <molecule>
Cc1nc2cnccc2n1-c1ccc(CCO)cc1

>  <property label>
melting point

>  <assay value>
196 to 198 °C

$$$$
>  <molecule>
COc1ccc(CC2CCc3ncc(C)cc3C2=O)cc1 (stereo unspecified)

>  <property label>
melting point

>  <assay value>
92 to 93 °C

$$$$
>  <molecule>
Cc1c(C)c(N2CCN(c3ccc(S(C)(=O)=O)cc3)CC2)c(C)c2c1OC(C)(C)C2

>  <property label>
melting point

>  <assay value>
256 to 260 °C

$$$$
>  <molecule>
N#Cc1ccc2c(c1)nc(N)n2CCC(=O)O

>  <property label>
melting point

>  <assay value>
> 320 °C

$$$$

[in] Which value of melting point has been reported for O=C1NCCCc2ccc([N+](=O)[O-])cc21 in the records?
[out] 177 to 180 °C

[in] Bench note: what melting point did CCOc1nn(Cc2ccc(OCc3cn(-c4ccccn4)nc3C)cc2)cc1CCC(=O)O show?
[out] 126 to 127 °C

====

property label: melting point

Some solved entries appear below for comparison.
>  <molecule>
O=C1NCCCN1C1CCN(CC(O)COc2ccccc2Cl)CC1 (stereo not given)

>  <assay value>
150 to 153 °C

$$$$
>  <molecule>
COC(=O)CCc1cc2cc(C(=O)c3ccccc3)ccc2n1S(=O)(=O)c1ccccc1

>  <assay value>
37 to 51 °C

$$$$

[in] Field request: melting point | item: NCC(C(=O)O)c1c[nH]c2cc(Cl)ccc12 (stereo not given)
[out] 245 to 247 °C

[in] Record request: melting point value, item NC(=O)c1ccc(F)c2c1CC(N(CCCc1c[nH]c3ccc(F)cc13)CC1CC1)CO2 (stereo not given)
[out] 121 °C

[in] State the recorded melting point for this entry: CNc1ncnc(N2CCc3ccccc3CC2)c1[N+](=O)[O-]
[out] 144 to 146 °C

[in] Fill in: melting point of O=C(C#Cc1ccccc1)Nc1nc2ccccc2s1 is ___
[out] 174 to 176 °C

[in] Endpoint output: melting point of CC(CO)NC(=O)COc1ccc(CCNS(=O)(=O)c2ccccc2)cc1 (stereo not given) . Value?
[out] 90 to 91 °C

[in] Query (molecule): COc1ccccc1-n1cnc2c(C(N)=O)nc(-c3cccc(O)c3)nc21 ; field requested: melting point
[out] 230 to 231 °C

[in] Fill in the blank: the reported melting point of CNC1(C)CN(c2nc3c(cc2F)c(=O)c(C(=O)O)cn3C(C)(C)C)C1 is ____.
[out] > 300 °C

[in] Query: melting point; subject: O=C(O)CC1=Cc2ccccc2C1
[out] 114 to 115 °C
